Test: CD69 Whole Blood Assay (CD69 Hu Blood FACS)
Format: cell-based, human
Conditions: Lymphocyte; human whole blood, anti-IgM activated B lymphocytes, FACS; IC70; Table 2 (unit inferred); read-out: CD69 Hu Blood FACS (IC70)
Each record gets a class by IC70: Low: < 100 nM; Mid: ≥ 100 nM and < 300 nM; High: ≥ 300 nM

Mol	Qualitative Label
COCCN1CCn2nc(Nc3cc(-c4nccc(N5CCn6c(cc7c6CC(C)(C)C7)C5=O)c4CO)cn(C)c3=O)cc2C1	Mid
Cc1cc(Nc2cc(-c3ccnc(N4CCn5c(cc6c5CC(C)(C)C6)C4=O)c3CO)cn(C)c2=O)ns1	Mid
Cn1cc(-c2ccnc(N3CCn4c(cc5c4CC(C)(C)C5)C3=O)c2CO)cc(Nc2ccc(C(=O)N3CCOCC3)cn2)c1=O	Low
C[C@H]1CN(C2COC2)CCN1c1cnc(Nc2cc(-c3ccnc(-n4ncc5c6c(sc5c4=O)CCCC6)c3CO)cn(C)c2=O)cn1	Mid
Cc1ccc(Nc2cc(-c3ccnc(N4CCn5c(cc6c5CC(C)(C)C6)C4=O)c3CO)cn(C)c2=O)nc1	High
CN1CC(c2ccc(Nc3cc(-c4ccnc(N5CCn6c(cc7c6CC(C)(C)C7)C5=O)c4CO)cn(C)c3=O)nc2)C1	Low
CCc1cc(Nc2cc(-c3ccnc(N4CCn5c(cc6c5CC(C)(C)C6)C4=O)c3CO)cn(C)c2=O)no1	Mid
CN1CCc2nc(Nc3cc(-c4ccnc(N5CCn6c7c(c(F)c6C5=O)CCCC7)c4CO)cn(C)c3=O)sc2C1	High
Cn1cc(-c2ccnc(N3CCn4c(cc5c4CCCC5)C3=O)c2CO)cc(Nc2ccc3[nH]cnc3n2)c1=O	High
Cn1cc(Nc2cc(-c3ccnc(N4CCc5c(sc6c5CC(C)(C)C6)C4=O)c3CO)cn(C)c2=O)nn1	Mid
C[C@H]1CN(C2COC2)CCN1c1ccc(Nc2cc(-c3ccnc(N4CCn5c6c(c(F)c5C4=O)CCCC6)c3CO)nn(C)c2=O)nc1	Low
Cn1nc(-c2ccnc(N3CCc4c(sc5c4CC(C)(C)C5)C3=O)c2CO)cc(Nc2cc3n(n2)CC(C)(C)OC3)c1=O	Mid
CN1CCc2nc(Nc3cc(-c4ccnc(-n5ncc6c7c(sc6c5=O)CCCC7)c4CO)cn(C)c3=O)sc2C1	High
C[C@H]1CN(C2COC2)CCN1c1cnc(Nc2cc(-c3ccnc(N4CCn5c(cc6c5CCCC6)C4=O)c3CO)cn(C)c2=O)cn1	High
Cn1nc(Nc2cc(-c3ccnc(N4CCn5c(cc6c5CC(C)(C)C6)C4=O)c3CO)cn(C)c2=O)cc1C(=O)N1CCOCC1	Low
Cc1nnc(Nc2cc(-c3ccnc(N4CCn5c(cc6c5CC(C)(C)C6)C4=O)c3CO)cn(C)c2=O)s1	Mid

====

Assay: CD69 Whole Blood Assay (CD69 Hu Blood FACS)
Type: cell-based, human
Conditions: Lymphocyte; human whole blood, anti-IgM activated B lymphocytes, FACS; IC70; Table 2 (unit inferred); read-out: CD69 Hu Blood FACS (IC70)
Threshold check on IC70: strictly below 60 nM is y; on or above 60 nM is n.

Mol	Qualitative Label
Cn1cc(-c2ccnc(N3CCn4c(cc5c4CC(C)(C)C5)C3=O)c2CO)nc(Nc2cccc(N)c2)c1=O	n
CN1CCC(c2ccc(Nc3cc(-c4ccnc(N5CCn6c(cc7c6CCCC7)C5=O)c4CO)cn(C)c3=O)nc2)CC1	y
C[C@@H]1c2cc(Nc3cc(-c4ccnc(N5CCn6c(cc7c6CC(C)(C)C7)C5=O)c4CO)cn(C)c3=O)nn2CCN1C	n
CN1CCn2nc(Nc3cc(-c4ccnc(N5CCc6c(c(F)c7n6CCCC7)C5=O)c4CO)cn(C)c3=O)cc2C1	n
C[C@@H]1COCCN1C(=O)c1ccc(Nc2cc(-c3ccnc(N4CCn5c(cc6c5CC(C)(C)C6)C4=O)c3CO)cn(C)c2=O)nc1	y
